Ref: the supplement of paper PMC6757056

The following variants are listed with their measured normalized RNA/DNA level without ligand (log10) values.
B1: library; a variant is named by its letters at N, in order (parent)
chain: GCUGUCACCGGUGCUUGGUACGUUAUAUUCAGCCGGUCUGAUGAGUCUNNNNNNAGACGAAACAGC

variants of: B1; assay: normalized RNA/DNA level without ligand (relative to sTRSVctl = 100) (log10 (% of sTRSVctl)); HEK293T overexpressing SLC46A1; higher = less ribozyme self-cleavage, higher mRNA level; details: without (6R,S)-folinic acid; ligand present: no
PROPERTY_NAME: normalized RNA/DNA level without ligand (log10)

| SEQ_TEXT | ENDPOINT_VALUE |
| --- | --- |
| GCUGUCACCGGUGCUUGGUACGUUAUAUUCAGCCGGUCUGAUGAGUCUAUGUCUAGACGAAACAGC [AUGUCU] | 1.99 |
| GCUGUCACCGGUGCUUGGUACGUUAUAUUCAGCCGGUCUGAUGAGUCUAUGCUGAGACGAAACAGC [AUGCUG] | 1.99 |
| GCUGUCACCGGUGCUUGGUACGUUAUAUUCAGCCGGUCUGAUGAGUCUUGUGGUAGACGAAACAGC [UGUGGU] | 1.89 |
| GCUGUCACCGGUGCUUGGUACGUUAUAUUCAGCCGGUCUGAUGAGUCUGCCUAUAGACGAAACAGC [GCCUAU] | 2.03 |
| GCUGUCACCGGUGCUUGGUACGUUAUAUUCAGCCGGUCUGAUGAGUCUACGAACAGACGAAACAGC [ACGAAC] | 2.02 |
| GCUGUCACCGGUGCUUGGUACGUUAUAUUCAGCCGGUCUGAUGAGUCUUCUUAAAGACGAAACAGC [UCUUAA] | 1.96 |
| GCUGUCACCGGUGCUUGGUACGUUAUAUUCAGCCGGUCUGAUGAGUCUGCAUGCAGACGAAACAGC [GCAUGC] | 2.03 |
